pKd: −log10 of the molar value.
value_kind: pKd

Item Nc1nc2c(ncn2[C@@H]2O[C@H](COP(=O)(O)OP(=O)(O)O)[C@@H](O)[C@H]2O)c(=O)[nH]1 was tested on UniProt G8HX37; the reported pKd is ~6.70

====

# assayed_target: MtdL (Marinactinospora thermotolerans, UniProt G8HX37, T13P)
# Sequence (G8HX37 entry or part of it T13P): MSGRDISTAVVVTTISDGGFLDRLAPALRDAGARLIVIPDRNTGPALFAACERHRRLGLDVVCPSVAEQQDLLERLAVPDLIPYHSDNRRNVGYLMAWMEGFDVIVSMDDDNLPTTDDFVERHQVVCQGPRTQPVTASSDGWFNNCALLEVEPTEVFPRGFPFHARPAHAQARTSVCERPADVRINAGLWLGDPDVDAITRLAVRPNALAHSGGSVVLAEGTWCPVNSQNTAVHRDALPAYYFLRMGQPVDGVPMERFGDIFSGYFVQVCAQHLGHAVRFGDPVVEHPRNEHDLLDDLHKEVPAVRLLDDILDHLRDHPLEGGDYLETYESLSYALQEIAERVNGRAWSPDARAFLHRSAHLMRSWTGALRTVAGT
# experiment_description: ITC
# Type: binding
pKd: −log10 of the molar value.
value_kind: pKd

Entry Nc1nc2c(ncn2[C@@H]2O[C@H](COP(=O)(O)OP(=O)(O)O)[C@@H](O)[C@H]2O)c(=O)[nH]1 [GDP] , pKd reported as ~5.25
